Study System: T1, human MSLN-FL-his protein (human, UniProt Q13421 296-580)
T1 construct: made in HEK293E cells, purified on nickel column; also called hMSLN-FL-his; human MSLN full-length protein; not shown: His tag
T1 sequence (Q13421 other isoform, or with tags, fused parts or gaps): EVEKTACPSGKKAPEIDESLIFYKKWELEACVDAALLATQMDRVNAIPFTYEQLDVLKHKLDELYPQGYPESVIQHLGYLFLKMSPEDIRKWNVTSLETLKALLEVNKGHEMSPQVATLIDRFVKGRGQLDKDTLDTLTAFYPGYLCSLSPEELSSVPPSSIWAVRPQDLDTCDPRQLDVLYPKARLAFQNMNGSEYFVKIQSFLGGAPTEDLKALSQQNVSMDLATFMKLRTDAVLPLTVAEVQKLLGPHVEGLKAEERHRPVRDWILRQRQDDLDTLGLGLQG
Assay Method Text: competitive ELISA; row F8-27.1; further: test concentration or dose not given here
competition rate listing for selected binders.
Write the value in % as a bare number.

## Input Note competition rate for the binder shown: S009-F8-7.5 (antibody, human IgG1, kappa, V domains shown, human-murine chimeric antibody, human IgG1/kappa constant regions) VH: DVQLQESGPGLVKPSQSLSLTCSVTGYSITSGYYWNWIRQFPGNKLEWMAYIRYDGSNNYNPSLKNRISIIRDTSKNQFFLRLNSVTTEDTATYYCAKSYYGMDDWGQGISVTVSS VL: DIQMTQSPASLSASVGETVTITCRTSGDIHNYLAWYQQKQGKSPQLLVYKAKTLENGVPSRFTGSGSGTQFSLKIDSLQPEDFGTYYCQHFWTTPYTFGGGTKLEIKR
## Output 3.35

## Input Note competition rate for the binder shown: S009-F8-5.15 (antibody, human IgG1, kappa, V domains shown, human-murine chimeric antibody, human IgG1/kappa constant regions) VH: QVQLQQPGTELVKPGASVKLSCKASGYTFTSYWMHWVKQRPGQGLEWIGHSNPSNGGTNYNEKFKSKATLTVDKSSSTAYMQLSSLTSEDSAVYYCARWVRGSNYEYFDVWGTGTTVTVSS VL: DIVMTQSQKFMSTTVGDRVSIICKASQNVGSAVAWCQQKPGQSPKLLIYSASNRYTGVPDRFTGSGSGTDFTLTISNMQSEDLADYFCQQYSSYPLTFAGGTKLEIKR
## Output 39.7

## Input Note competition rate for the binder shown: S009-F8-18.9 (antibody, human IgG1, kappa, V domains shown, human-murine chimeric antibody, human IgG1/kappa constant regions) VH: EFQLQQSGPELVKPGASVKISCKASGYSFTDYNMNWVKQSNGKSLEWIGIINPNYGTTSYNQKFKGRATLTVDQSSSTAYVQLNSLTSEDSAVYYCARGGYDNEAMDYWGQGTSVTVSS VL: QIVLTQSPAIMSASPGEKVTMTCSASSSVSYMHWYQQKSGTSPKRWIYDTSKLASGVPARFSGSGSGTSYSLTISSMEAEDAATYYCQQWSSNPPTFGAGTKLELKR
## Output 96.8
